Target: Epac1 (Homo sapiens)
Experiment: biochemical
assay_endpoint: pEC50
Keep it numeric: pEC50 is minus log10 of the concentration in mol/L.

[ask] Record lookup: for Epac1 (Homo sapiens), what pEC50 belongs to COC1C2OP(O)(=S)OCC2OC1n1c(Sc2ccc(Cl)cc2)nc2c(N)ncnc21 (stereo not shown) ?
[reply] 5.12

---

Molecular target: Epac2 (Homo sapiens)
Sequence (Q8WZA2 1-867 isoform Q8WZA2-3): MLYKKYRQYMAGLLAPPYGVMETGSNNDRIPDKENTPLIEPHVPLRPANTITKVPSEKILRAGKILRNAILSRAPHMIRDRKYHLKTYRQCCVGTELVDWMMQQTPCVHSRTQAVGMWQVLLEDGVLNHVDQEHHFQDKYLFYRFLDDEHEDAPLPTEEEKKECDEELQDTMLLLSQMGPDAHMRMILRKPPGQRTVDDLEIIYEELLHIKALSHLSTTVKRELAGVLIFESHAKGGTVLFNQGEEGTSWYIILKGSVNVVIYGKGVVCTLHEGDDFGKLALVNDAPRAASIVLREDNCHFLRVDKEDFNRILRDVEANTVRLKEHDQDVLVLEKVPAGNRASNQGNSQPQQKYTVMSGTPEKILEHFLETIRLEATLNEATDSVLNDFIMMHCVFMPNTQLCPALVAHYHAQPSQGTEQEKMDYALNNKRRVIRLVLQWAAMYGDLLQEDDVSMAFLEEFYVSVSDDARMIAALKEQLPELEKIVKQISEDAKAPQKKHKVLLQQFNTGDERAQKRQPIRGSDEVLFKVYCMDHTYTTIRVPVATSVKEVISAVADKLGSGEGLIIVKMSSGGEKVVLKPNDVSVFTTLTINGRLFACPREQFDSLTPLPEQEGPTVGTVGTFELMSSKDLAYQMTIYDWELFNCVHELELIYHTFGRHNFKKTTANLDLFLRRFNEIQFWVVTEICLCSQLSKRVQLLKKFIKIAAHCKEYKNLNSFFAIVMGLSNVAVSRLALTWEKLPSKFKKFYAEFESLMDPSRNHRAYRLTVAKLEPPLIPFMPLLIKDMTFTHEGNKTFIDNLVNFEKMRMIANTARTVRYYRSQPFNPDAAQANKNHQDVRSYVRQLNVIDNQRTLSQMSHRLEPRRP
Assay: Epac GEF activity assay (b-GDP dissociation from recombinant Rap1), Epac2
Format: biochemical
Conditions: saturating concentration of Sp-8-CPT
assay_endpoint: IC50

[ask] // lookup IC50 for Nc1c(C(=O)Nc2ccc(F)cc2)sc2nc(-c3cccs3)cc(-c3ccccc3)c12 [AM-001]
[reply] > 1 mM

---

Biological target: Epac2 (Homo sapiens)
Assay: Epac GEF activity assay (b-GDP dissociation from recombinant Rap1), Epac2
Assay type: biochemical
Conditions: Sp-8-CPT at its EC50 for the isoform
Excerpt: FIGS. 4-8. […] Variations of relative fluorescence units (RFU) were studied as a function of time and fitted to single exponentials.
assay_endpoint: IC50

[ask] Record lookup: for Epac2 (Homo sapiens), what IC50 belongs to "Nc1c(C(=O)Nc2ccc(F)cc2)sc2nc(-c3cccs3)cc(-c3ccccc3)c12" ?
[reply] > 1000 µM

---

Molecular target: Epac1-BRET sensor CAMYEL (Homo sapiens, UniProt O95398, F824A/T823A)
Construct: made in house; host or cells: Prokaryotic expression vector pQE30-CAMYEL; used as cell extract
Sequence (O95398 191-923 T823A/F824A limits assumed): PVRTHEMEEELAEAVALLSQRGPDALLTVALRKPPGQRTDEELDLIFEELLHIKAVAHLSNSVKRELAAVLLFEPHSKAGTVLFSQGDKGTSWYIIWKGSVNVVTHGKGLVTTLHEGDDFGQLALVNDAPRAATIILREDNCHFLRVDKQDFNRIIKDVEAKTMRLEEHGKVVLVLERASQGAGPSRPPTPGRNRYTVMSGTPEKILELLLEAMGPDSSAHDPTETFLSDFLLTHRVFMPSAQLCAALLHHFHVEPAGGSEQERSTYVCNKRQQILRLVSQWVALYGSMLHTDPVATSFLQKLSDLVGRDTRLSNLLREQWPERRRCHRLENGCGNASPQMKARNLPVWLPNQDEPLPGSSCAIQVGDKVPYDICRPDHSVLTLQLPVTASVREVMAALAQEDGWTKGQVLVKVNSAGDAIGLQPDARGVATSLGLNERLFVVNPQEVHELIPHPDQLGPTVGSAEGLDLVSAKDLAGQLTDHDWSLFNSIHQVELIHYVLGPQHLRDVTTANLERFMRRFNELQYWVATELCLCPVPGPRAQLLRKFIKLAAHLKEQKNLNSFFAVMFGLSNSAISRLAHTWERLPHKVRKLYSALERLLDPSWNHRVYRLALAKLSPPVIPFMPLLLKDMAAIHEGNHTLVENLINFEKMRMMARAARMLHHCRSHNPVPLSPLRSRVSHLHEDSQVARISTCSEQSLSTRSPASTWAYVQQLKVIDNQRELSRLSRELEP
Experiment: CAMYEL Epac1-BRET sensor assay (cAMP-induced conformational change)
Format: biochemical
Conditions: read-out: BRET ratio variation (% of 100 μM cAMP alone)
assay_endpoint: remaining activity at 20 µM (%)
Enter your answer as a number in %; do not include the unit.

[ask] // lookup remaining activity at 20 µM for Cc1cc(C)c2c(N)c(C(=O)Nc3ccc(F)cc3)sc2n1 [AM-010, reference compound]
[reply] 101

[ask] Request: CC(C)NC(=O)c1sc2nc(-c3cccs3)cc(-c3ccc(F)cc3)c2c1N [AM-003, reference compound]
[reply] 100

[ask] Request: "Nc1c(C(=O)Nc2ccccc2)sc2nc(-c3cccs3)cc(-c3ccccc3)c12"
[reply] 47

[ask] Request: "Cc1cc(-c2ccccc2)c2c(N)c(C(=O)Nc3ccccc3)sc2n1"
[reply] 82.2

[ask] Request: "Nc1c(C(=O)Nc2ccc(F)cc2)sc2nc3c(c(-c4ccccc4)c12)CCCC3"
[reply] 80.5

[ask] Request: "Nc1c(C(=O)Nc2ccc(F)cc2)sc2nc(-c3cccs3)ccc12"
[reply] 82.4

[ask] Request: O=c1c2sc3nc(-c4cccs4)cc(-c4ccccc4)c3c2ncn1-c1ccccc1 [AM-002, reference compound]
[reply] 93.6

[ask] Request: "NC(=O)c1sc2nc(-c3cccs3)cc(-c3ccc(F)cc3)c2c1N"
[reply] 74

[ask] Request: "Nc1c(C(=O)Nc2ccccc2)sc2nc(-c3cccs3)cc(-c3ccc(F)cc3)c12"
[reply] 46.9

---

Biological target: Epac1 (Homo sapiens, UniProt O95398)
Test: biochemical
Details: saturating concentration of Sp-8-CPT; read-out: IC50, Epac1 GEF activity
assay_endpoint: IC50 (µM)
Enter your answer as a number in µM; do not include the unit.

[ask] // lookup IC50 for Nc1c(C(=O)Nc2ccc(F)cc2)sc2nc(-c3cccs3)cc(-c3ccccc3)c12 [AM-001]
[reply] 48.5

The values you see were collected from patent US20210230179A1.
